Molecular target: IGF-1R (Homo sapiens, UniProt P08069)
Sequence (P08069 31-1367): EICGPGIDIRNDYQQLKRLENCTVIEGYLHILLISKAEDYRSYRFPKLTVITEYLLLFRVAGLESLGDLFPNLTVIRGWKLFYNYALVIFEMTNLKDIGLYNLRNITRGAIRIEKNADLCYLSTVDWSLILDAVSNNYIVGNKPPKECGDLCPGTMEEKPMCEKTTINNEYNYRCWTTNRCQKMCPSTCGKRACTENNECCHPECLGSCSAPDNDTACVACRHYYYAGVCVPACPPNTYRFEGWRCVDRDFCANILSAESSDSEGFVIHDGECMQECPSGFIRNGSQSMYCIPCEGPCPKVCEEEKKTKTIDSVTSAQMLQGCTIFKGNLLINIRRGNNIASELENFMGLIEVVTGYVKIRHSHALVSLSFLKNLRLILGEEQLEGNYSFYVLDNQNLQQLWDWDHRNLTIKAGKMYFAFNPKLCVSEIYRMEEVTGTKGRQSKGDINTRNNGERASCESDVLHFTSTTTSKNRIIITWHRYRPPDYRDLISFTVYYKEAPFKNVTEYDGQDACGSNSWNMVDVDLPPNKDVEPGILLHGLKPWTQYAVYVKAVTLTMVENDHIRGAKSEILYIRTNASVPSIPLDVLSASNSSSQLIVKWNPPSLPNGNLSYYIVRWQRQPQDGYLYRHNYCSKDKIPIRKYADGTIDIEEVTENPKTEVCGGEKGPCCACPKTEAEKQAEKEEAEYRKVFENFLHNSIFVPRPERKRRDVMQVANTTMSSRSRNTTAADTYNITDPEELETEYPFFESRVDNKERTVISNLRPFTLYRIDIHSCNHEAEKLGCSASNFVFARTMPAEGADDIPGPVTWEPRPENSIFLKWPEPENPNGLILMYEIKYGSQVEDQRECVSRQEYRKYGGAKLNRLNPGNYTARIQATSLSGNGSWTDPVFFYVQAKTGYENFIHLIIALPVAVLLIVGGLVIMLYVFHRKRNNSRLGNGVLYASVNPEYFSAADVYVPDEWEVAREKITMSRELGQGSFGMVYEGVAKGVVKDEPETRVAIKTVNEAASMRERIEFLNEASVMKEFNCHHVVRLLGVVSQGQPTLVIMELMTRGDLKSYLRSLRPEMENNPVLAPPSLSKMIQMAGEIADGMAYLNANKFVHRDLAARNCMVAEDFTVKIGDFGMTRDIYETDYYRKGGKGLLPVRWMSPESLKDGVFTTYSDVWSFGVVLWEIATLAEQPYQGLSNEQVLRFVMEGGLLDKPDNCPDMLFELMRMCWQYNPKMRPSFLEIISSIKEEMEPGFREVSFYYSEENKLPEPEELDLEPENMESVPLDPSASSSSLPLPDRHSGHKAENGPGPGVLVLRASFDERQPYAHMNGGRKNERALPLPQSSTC
Experiment: IGF-1R phosphorylation in various malignant cell types (EC50)
Assay type: cell-based
Parameters: endogenous in cells; host or cells: 12 malignant cell lines (e.g. SK-MEL-2, SK-MEL-5, SK-MEL-28)
Conditions: FM55 melanoma, 1 h
Measured Endpoint: EC50 (nM)
Give the value in nM but do not write nM after it.

COc1cc([C@@H]2c3cc4c(cc3[C@H](O)[C@H]3COC(=O)[C@H]23)OCO4)cc(OC)c1OC | 40

// next item, EC50 requested
Given the compound `COc1cc([C@@H]2c3cc4c(cc3[C@H](O)[C@H]3COC(=O)[C@@H]23)OCO4)cc(OC)c1OC` , what is its reported EC50?
60

----------
System: R- cells (IGF-1R negative fibroblasts)
Assay: Cell viability (XTT), R-
Type: cell-based, murine
Details: Mus musculus, Fibroblast; R- (IGF-1R negative fibroblasts), 48 h; read-out: EC50 for cell viability
Method: Cell proliferation kit II (Roche Inc.) is based on colorimetric change of the yellow tetrazolium salt XTT in orange formazan dye by the respiratory chain of viable cells (Roehm, N W, et al., J Immunol Methods 142:257-265, 1991). […] After 4 h the formazan dye is quantified using a scanning multiwell spectrophotometer with a 495-nm filter. The absorbance is directly correlated with the number of viable cells. […]
Measured Endpoint: EC50

Find the recorded EC50 belonging to `COc1cc([C@@H]2c3cc4c(cc3[C@H](O)[C@H]3COC(=O)[C@@H]23)OCO4)cc(OC)c1OC` and report it.
> 15 µM

----------
Tested on: P6 cells (fibroblasts with overexpressed IGF-1R)
Test: Cell viability (XTT), P6
Type: cell-based, murine
Conditions: Mus musculus, Fibroblast, 48 h, read-out: EC50 for cell viability
Measured Endpoint: EC50 (nM)
Write down the numeric answer in nM and omit the unit.

// EC50 lookup, key: COc1cc([C@@H]2c3cc4c(cc3[C@H](O)[C@H]3COC(=O)[C@H]23)OCO4)cc(OC)c1OC [Podophyllotoxin, podophyllotoxin]
30

----------
Test system: HepG2 hepatoma cell line
Test: Cell viability (XTT), HepG2
Format: cell-based
Conditions: Homo sapiens, HepG2, 48 h, read-out: EC50 for cell viability
pEC50: −log10 of the molar value.
Measured Endpoint: pEC50

Bench note: what pEC50 did `COc1cc([C@@H]2c3cc4c(cc3[C@H](O)[C@H]3COC(=O)[C@H]23)OCO4)cc(OC)c1OC` show?
< 4.82

----------
Molecular target: IGF-1R (Homo sapiens)
Test: IGF-1R phosphorylation in various malignant cell types (EC50)
Type: cell-based
Set-up: endogenous in cells; host or cells: 12 malignant cell lines (e.g. SK-MEL-2, SK-MEL-5, SK-MEL-28)
Details: MCF-7 breast cancer, 1 h
Description: Cells were cultured to subconfluency in 6-cm plates, and then fresh medium containing 10% FBS and the desired compounds were added for 1 h. The cells were then lyzed and subjected to immunoprecipitation using specific antibodies. Immunoprecipitates were resolved by sodium dodecyl sulphate polyacrylamide gel electrophoresis (SDS-PAGE) and transferred to nitro-cellulose membranes and incubated with anti-phosphotyrosine antibody. […] After detection the films were scanned for quantification. […]
Measured Endpoint: pEC50
Expect pEC50 as a plain number equal to -log10 of the molar concentration.

COc1cc([C@@H]2c3cc4c(cc3[C@H](O)[C@H]3COC(=O)[C@@H]23)OCO4)cc(OC)c1OC [Picropodophyllin, picropodophyllin] | 7.40

# pEC50 lookup, item COc1cc([C@@H]2c3cc4c(cc3[C@H](O)[C@H]3COC(=O)[C@H]23)OCO4)cc(OC)c1OC [Podophyllotoxin, podophyllotoxin]
7.30

----------
Molecular target: IGF-1R (Homo sapiens, UniProt P08069)
Test: In vitro tyrosine kinase assay: IGF-1R-catalyzed substrate phosphorylation of polyTyrGlu (pTG), cell-free
Type: biochemical
Design: expressed in transfected cells; host or cells: P6 cell line (murine fibroblasts overexpressing human IGF-1R); receptor captured on plates with an antibody to the beta subunit
Conditions: FIG. 3
Measured Endpoint: IC50 (nM)
Express it in nM; write the number only.

Please look up its IC50: `COc1cc([C@@H]2c3cc4c(cc3[C@H](O)[C@H]3COC(=O)[C@@H]23)OCO4)cc(OC)c1OC`
6

----------
Target: IGF-1R (Homo sapiens)
Experiment: IGF-1R phosphorylation in various malignant cell types (EC50)
Format: cell-based
Design: endogenous in cells; host or cells: 12 malignant cell lines (e.g. SK-MEL-2, SK-MEL-5, SK-MEL-28)
Settings: P6 fibroblasts with overexpressed IGF-1R, 1 h
Listed compounds paired with reported pEC50
Scale explanation: pEC50 corresponds to minus log10 of a concentration expressed in moles per litre.

COc1cc([C@@H]2c3cc4c(cc3[C@H](O)[C@H]3COC(=O)[C@@H]23)OCO4)cc(OC)c1OC | 7.52

Would you kindly share the measured pEC50 for `COc1cc([C@@H]2c3cc4c(cc3[C@H](O)[C@H]3COC(=O)[C@H]23)OCO4)cc(OC)c1OC` ?
7.70

----------
Molecular target: IGF-1R (Homo sapiens, UniProt P08069)
Assay: IGF-1R tyrosine autophosphorylation, sandwich ELISA, cell-free
Format: biochemical
Design: expressed in transfected cells; host or cells: P6 cell line (murine fibroblasts overexpressing human IGF-1R); receptor captured on plates with an antibody to the beta subunit
Settings: cell-free, ATP 19-300 μM in reaction buffer; read-out: IC50, autophosphorylation of IGF-1R at various ATP concentrations
Measured Endpoint: IC50

Requested read-out IC50, target or system IGF-1R (Homo sapiens, UniProt P08069), entry `COc1cc([C@@H]2c3cc4c(cc3[C@H](O)[C@H]3COC(=O)[C@@H]23)OCO4)cc(OC)c1OC`
1 to 2 nM

----------
Tested on: K562/S chronic myeloid leukemia cells
Experiment: Leukemia cell viability, K562/S
Assay type: cell-based, human
Settings: 72 h, read-out: IC50 for cell viability
Measured Endpoint: pIC50
The read-out pIC50 is expressed as -log10 of concentration in moles per litre.

Query: pIC50; subject: `COc1cc([C@@H]2c3cc4c(cc3C=C3COC(=O)[C@H]32)OCO4)cc(OC)c1OC`
7.40

----------
Biological target: IGF-1R (Homo sapiens)
Test: IGF-1R tyrosine autophosphorylation, sandwich ELISA, cell-free
Format: biochemical
Set-up: expressed in transfected cells; host or cells: P6 cell line (murine fibroblasts overexpressing human IGF-1R); receptor captured on plates with an antibody to the beta subunit
Conditions: in vitro, stated in description; read-out: IC50 for IGF-1R-inhibition when tested in vitro
Measured Endpoint: IC50

Param item = `COc1cc([C@@H]2c3cc4c(cc3[C@H](O)[C@H]3COC(=O)[C@H]23)OCO4)cc(OC)c1OC` ; retrieve measured IC50.
1 nM

----------
Tested on: P6 cells (fibroblasts with overexpressed IGF-1R)
Experiment: Cell viability (XTT), P6
Format: cell-based, murine
Settings: Mus musculus, Fibroblast; P6 (fibroblasts with overexpressed IGF-1R), 48 h; read-out: EC50 for cell viability
Measured Endpoint: EC50 (nM)
# number only, unit nM dropped from output

Entry `COc1cc([C@@H]2c3cc4c(cc3[C@H](O)[C@H]3COC(=O)[C@@H]23)OCO4)cc(OC)c1OC` : reported EC50 = ?
20

----------
Assay: Water solubility
Type: physicochemical
Measured Endpoint: solubility

// lookup solubility for `COc1cc([C@@H]2c3cc4c(cc3[C@H](O)[C@H]3COC(=O)[C@H]23)OCO4)cc(OC)c1OC`
100 to 200 µM

----------
Target: IGF-1R (Homo sapiens, UniProt P08069)
Assay: IGF-1R phosphorylation in various malignant cell types (EC50)
Type: cell-based
Parameters: endogenous in cells; host or cells: 12 malignant cell lines (e.g. SK-MEL-2, SK-MEL-5, SK-MEL-28)
Conditions: SK-MEL-28 melanoma, 1 h
Measured Endpoint: pEC50
Field pEC50 (float): negative decimal logarithm of the concentration in molar.

COc1cc([C@@H]2c3cc4c(cc3[C@H](O)[C@H]3COC(=O)[C@H]23)OCO4)cc(OC)c1OC [Podophyllotoxin, podophyllotoxin] | 7.52

// switching to the query compound
What measured pEC50 goes with COc1cc([C@@H]2c3cc4c(cc3[C@H](O)[C@H]3COC(=O)[C@@H]23)OCO4)cc(OC)c1OC [Picropodophyllin, picropodophyllin] ?
7.40

----------
Tested on: BE malignant melanoma cell line
Test: Cell viability (XTT), BE
Type: cell-based
Details: 48 h
Measured Endpoint: EC50 (nM)
Report only the number, with the unit nM understood.

Could you share which EC50 value was measured for `COc1cc([C@@H]2c3cc4c(cc3[C@H](O)[C@H]3COC(=O)[C@H]23)OCO4)cc(OC)c1OC` ?
50

----------
Tested on: K562/S chronic myeloid leukemia cells
Assay: Leukemia cell viability, K562/S
Type: cell-based, human
Details: Homo sapiens, 72 h, read-out: IC50 for cell viability
Measured Endpoint: pIC50
pIC50 field: float, defined as -log10 of concentration (mol/L).

Recorded pIC50 for COc1cc([C@@H]2c3cc4c(cc3[C@H](O)[C@H]3COC(=O)[C@@H]23)OCO4)cc(OC)c1OC [Picropodophyllin, picropodophyllin] , please?
6.49
